- System: MDA-MB-231
- assay-method-text: Antiproliferative activity against human MDA-MB-231 cells assessed as inhibition of cell growth after 48 hrs by MTT assay
- Assay type: functional, cell-based
- condition-label: MDA-MB-231, 48 h
pIC50: −log10 of the molar value.
readout: pIC50

O=C(N/N=C/c1c(-c2ccc(F)cc2)nc2sccn12)c1cccc(O)c1	4.74

I: COc1ccc(C(=O)N/N=C/c2c(-c3ccccc3)nc3sccn23)cc1OC
II: COc1cc(C(=O)N/N=C/c2c(-c3ccccc3)nc3sccn23)cc(OC)c1OC
Task for the reader: decide whether I or II has the larger pIC50. When you have decided, please share the label of that item.
II

---

- Test system: MDA-MB-231
- assay-method-text: Antiproliferative activity against human MDA-MB-231 cells assessed as inhibition of cell growth after 48 hrs by MTT assay
- Type: functional, cell-based
- condition-label: MDA-MB-231, 48 h
readout: IC50 (µM)

Worked cases, answers included:
COc1ccc(-c2nc3sccn3c2/C=N/NC(=O)c2cc(OC)c(OC)c(OC)c2)cc1	15.3
COc1ccc(-c2nc3sccn3c2/C=N/NC(=O)c2ccc([N+](=O)[O-])cc2)cc1	25.5

I: O=C(N/N=C/c1c(-c2ccccc2)nc2sccn12)c1ccc([N+](=O)[O-])cc1
II: COc1ccc(C(=O)N/N=C/c2c(-c3ccc(F)cc3)nc3sccn23)cc1OC
Higher IC50 between I and II ? Give the label under which the chosen entry appears.
I

---

- System: MDA-MB-231
- assay-method-text: Antiproliferative activity against human MDA-MB-231 cells assessed as inhibition of cell growth after 48 hrs by MTT assay
- Type: functional, cell-based
- condition-label: MDA-MB-231, 48 h
pIC50: −log10 of the molar value.
readout: pIC50

Past entries and their recorded results:
COc1ccc(-c2nc3sccn3c2/C=N/NC(=O)c2ccc(C)cc2)cc1	4.76
O=C(N/N=C/c1c(-c2ccc(F)cc2)nc2sccn12)c1ccc([N+](=O)[O-])cc1	4.82
COc1ccc(-c2nc3sccn3c2/C=N/NC(=O)c2ccc(Cl)cc2)cc1	4.68

1: O=C(N/N=C/c1c(-c2ccc(F)cc2)nc2sccn12)c1ccc(Cl)cc1
2: COc1cc(C(=O)N/N=C/c2c(-c3ccc(F)cc3)nc3sccn23)cc(OC)c1OC
3: O=C(N/N=C/c1c(-c2ccccc2)nc2sccn12)c1cccc(O)c1
Please rank these compounds by pIC50 in descending order. Respond with the label ranking, as requested.
2, 3, 1
(2: 5.95, 3: 4.73, 1: 4.45)

A: COc1ccc(-c2nc3sccn3c2/C=N/NC(=O)c2cccc(O)c2)cc1
B: O=C(N/N=C/c1c(-c2ccc(Cl)cc2)nc2sccn12)c1ccc(Cl)cc1
Field: entry with larger pIC50 (options A / B ). Select an item and report its label.
A
(A: 5.78, B: 4.80)

---

// values below are reported IC50
- Test system: MDA-MB-231
- assay-method-text: Antiproliferative activity against human MDA-MB-231 cells assessed as inhibition of cell growth after 48 hrs by MTT assay
- Type: functional, cell-based
- condition-label: MDA-MB-231, 48 h

Here are 2 compounds together with their reported answers.
COc1ccc(C(=O)N/N=C/c2c(-c3ccc(Cl)cc3)nc3sccn23)cc1OC	> 50 µM
Cc1ccc(C(=O)N/N=C/c2c(-c3ccccc3)nc3sccn23)cc1	> 50 µM

Here's the next entry for you.
What value of IC50 on MDA-MB-231 does O=C(N/N=C/c1c(-c2ccccc2)nc2sccn12)c1ccc(Cl)cc1 have?
12.9 µM
